Where do these numbers come from? They come from ChEMBL document CHEMBL3638822.

- measured-on: Phosphodiesterase (Bos taurus, UniProt F1MPW5)
- Sequence (F1MPW5 whole entry): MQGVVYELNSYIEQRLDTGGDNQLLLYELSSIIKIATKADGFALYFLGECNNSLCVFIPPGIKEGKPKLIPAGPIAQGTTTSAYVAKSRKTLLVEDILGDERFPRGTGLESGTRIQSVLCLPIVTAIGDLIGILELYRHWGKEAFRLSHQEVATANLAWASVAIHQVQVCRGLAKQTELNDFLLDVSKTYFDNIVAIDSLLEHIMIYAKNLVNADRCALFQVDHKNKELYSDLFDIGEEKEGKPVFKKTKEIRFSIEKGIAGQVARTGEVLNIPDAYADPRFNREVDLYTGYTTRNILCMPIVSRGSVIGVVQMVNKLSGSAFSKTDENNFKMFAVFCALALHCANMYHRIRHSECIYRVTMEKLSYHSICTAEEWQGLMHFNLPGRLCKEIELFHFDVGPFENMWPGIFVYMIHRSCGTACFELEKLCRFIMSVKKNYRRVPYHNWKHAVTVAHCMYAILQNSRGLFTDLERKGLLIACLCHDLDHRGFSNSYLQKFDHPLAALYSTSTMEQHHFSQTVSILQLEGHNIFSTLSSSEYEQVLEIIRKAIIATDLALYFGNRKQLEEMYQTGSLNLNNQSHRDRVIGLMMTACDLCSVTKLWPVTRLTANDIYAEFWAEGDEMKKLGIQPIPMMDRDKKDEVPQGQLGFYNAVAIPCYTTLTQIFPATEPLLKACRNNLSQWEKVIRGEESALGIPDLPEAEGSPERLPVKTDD
- experimental-details: Inhibition Assay: The PDE assay was performed according to a modified method referred to a report of Kotera et al. (Kotera et al., Biochem. Pharmacol., vol. 60, pp. 1333-1341, 2000), by the radiolabeled nucleotide method.Specifically, the measurements of the inhibitory activities were carried out in the following method.(Method) The test compounds were dissolved in dimethyl sulfoxide (DMSO). 2 uL of the compound solution was added to 96 well plate, and the reaction mixture (20 uL of PDE enzyme solution in 50 mM Tris-HCl, pH 8.0, 40 uL of the assay buffer (50 mM Tris-HCl, pH 8.0, 2 mM MgCl2, 0.07% 2-mercaptoethanol, and 0.825 mg/mL bovine serum albumin), and 20 uL of 1 mg/mL snake venom in 50 mM Tris-HCl, pH8.0) was added to the 96 well plate. The enzyme reaction was started by adding and mixing with substrate solution of 20 L containing approximate 35 nM 3H-cAMP in 50 mM Tris-HCl, pH 8.0. The final concentration of cAMP in the reaction mixtures was 7 nM.
endpoint-label: pIC50
One number for each entry, as −log10 of the molar value.

Sample answers from the record:
Cc1nc2ccc(F)cc2nc1-c1cc2nc(N3CC[C@@H](F)C3)cc(NCC(C)(C)O)n2n1    10.05
Cc1nc2ccccc2nc1-c1cc2nc(N3CCCC3)cc(NC3CCOCC3)n2n1    9.96
Cc1nc2ccccc2nc1-c1cc2nc(N3CCCC3)cc(NC[C@H](O)C(F)(F)F)n2n1    9.89
Cc1nc2ccc(F)cc2nc1-c1cc2nc(N3CC[C@@H](F)C3)cc(N[C@H]3CC[C@](C)(O)CC3)n2n1    10.05

get_value(item= `C[C@]1(O)CC[C@H](Nc2cc(N3CC[C@@H](F)C3)nc3cc(-c4nc5ccccc5nc4C(F)(F)F)nn23)CC1` , readout=pIC50) returns 9.74
